system.under.test: D(2) dopamine receptor (Bos taurus)
Sequence (P20288 whole entry): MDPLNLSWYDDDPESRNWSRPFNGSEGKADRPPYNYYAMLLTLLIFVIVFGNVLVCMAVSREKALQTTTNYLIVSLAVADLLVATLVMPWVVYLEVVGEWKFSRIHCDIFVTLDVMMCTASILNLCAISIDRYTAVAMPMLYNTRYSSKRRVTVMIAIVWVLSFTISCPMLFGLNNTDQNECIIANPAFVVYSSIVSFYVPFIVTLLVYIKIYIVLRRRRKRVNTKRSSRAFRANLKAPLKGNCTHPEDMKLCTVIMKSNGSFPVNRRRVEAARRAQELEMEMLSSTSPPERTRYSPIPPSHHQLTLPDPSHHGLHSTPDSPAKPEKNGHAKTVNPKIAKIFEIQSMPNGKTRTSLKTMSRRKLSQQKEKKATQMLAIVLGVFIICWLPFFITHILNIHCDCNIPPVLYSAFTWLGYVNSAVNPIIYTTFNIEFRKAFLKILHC
assay.summary: Binding affinity against D2 receptor in calf caudate nucleus
measured.quantity: IC50 (µM)
Return type: number; implicit unit µM.

See these solved cases before continuing.
CCCN(CCCCN1C(=O)C2CCCC2C1=O)C1COc2cccc(OC)c2C1 (single isomer, unassigned; (-)) ... 0.01
CCCN(CCCN1C(=O)CC2(CCCC2)CC1=O)C1COc2cccc(OC)c2C1 (configuration not stated) ... 0.6
O=C1CC2(CCCC2)CC(=O)N1CCCCN1CCN(c2ncccn2)CC1 ... 4
CCCN(CCC)C1CCc2cccc(O)c2C1 (configuration not stated) ... 0.8
CCCN(CCNS(=O)(=O)c1ccc(C)cc1)C1COc2cccc(OC)c2C1 (stereo in doubt; 15b) ... 0.1
CCCN(CCN1C(=O)c2ccccc2C1=O)C1COc2cccc(OC)c2C1 (configuration not stated) ... 10

q: Sample CCCN(CCCCn1c(=O)oc2cccnc21)C1COc2cccc(OC)c2C1 (configuration not stated) — what was its IC50?
a: 0.1

q: Try this compound too: CCCN(CCCCNC(=O)c1ccc(F)cc1)C1COc2cccc(OC)c2C1 (configuration not stated)
a: 0.007

q: Now try CCCN(CCCCN1C(=O)CC2(CCCC2)CC1=O)C1COc2cccc(O)c2C1 (configuration not stated) .
a: 0.008

q: Okay, and COc1cccc2c1CC(N1CCCC1)CO2 (configuration not stated) ?
a: 2.5
